Assay: activity coefficient (dimensionless); of the first substance listed, at infinite dilution; xn = mol fraction of the nth substance listed
Conditions: 303.15 K; Liquid; Chromatography; x1 = 0
# activity coefficient binned as lo (below 2), med (2 to below 5), hi (5 or more)

Kindly identify the class of CC#N [acetonitrile] + CCC[n+]1ccn(C)c1C.F[B-](F)(F)F .
lo

For the record CCO [ethanol] + CCC[n+]1ccn(C)c1C.F[B-](F)(F)F , report the class its activity coefficient corresponds to.
lo

Class (by measured activity coefficient) for C1COCCO1 [1,4-dioxane] + CCC[n+]1ccn(C)c1C.F[B-](F)(F)F
med

Using the reported activity coefficient, which band applies to CCOC(C)=O [ethyl acetate] + CCC[n+]1ccn(C)c1C.F[B-](F)(F)F ?
hi

Exam item: assign CC(C)=O [acetone] + CCC[n+]1ccn(C)c1C.F[B-](F)(F)F to the correct category.
med

Class for ClC(Cl)(Cl)Cl [tetrachloromethane] + CCC[n+]1ccn(C)c1C.F[B-](F)(F)F ?
hi

Band for the recorded activity coefficient of CO [methanol] + CCC[n+]1ccn(C)c1C.F[B-](F)(F)F ?
lo

Returns: class label. Input: ClCCl [dichloromethane] + CCC[n+]1ccn(C)c1C.F[B-](F)(F)F
lo
